Values were extracted from ChEMBL document CHEMBL3507680.

test: Human HepG2 cell viability assay in 384 well format; type: toxicity, cell-based; set-up: dose 125 nL, time 70.5 hour; concentration not given beside the values; details: HepG2 cells, read-out: Inhibition
observation-type: cytotoxicity at 70.5 h (%)

{"columns": ["molecule", "observation-type", "meas-value"],
 "data": [
  ["Cn1ccnc1CN1CCC2(CC(=O)N(c3ccccn3)C2)C1 (stereo unspecified)", "cytotoxicity at 70.5 h", -10.7],
  ["Cc1noc(C)c1CNC(=O)N1CCC(CO)CC1", "cytotoxicity at 70.5 h", -3.59],
  ["CCc1cnc(N2C[C@H]3CN(Cc4csc(C)n4)C(=O)[C@H]3C2)nc1", "cytotoxicity at 70.5 h", -8.61],
  ["Cc1nc2cc(O)nn2c(C)c1CCC(=O)N(C)Cc1ccccc1", "cytotoxicity at 70.5 h", 2.7],
  ["COc1cccc(N2Cc3nc(=O)n(Cc4cccc(F)c4)n3C2=O)c1", "cytotoxicity at 70.5 h", -20.7],
  ["CCCc1nc(CNCC2CCCN2c2cccnn2)cs1 (stereo unspecified)", "cytotoxicity at 70.5 h", 11.9],
  ["CC(C)N1CCC2(CC1)CN(C)C(=O)C[C@H]2C(F)(F)F", "cytotoxicity at 70.5 h", -7.67],
  ["COCCOC1CCN(C(C(=O)O)c2c(Cl)cccc2OC)CC1 (stereo unspecified)", "cytotoxicity at 70.5 h", -10.5],
  ["Cc1cc(C)cc(N2CC(c3nnc(N)s3)CC2=O)c1 (stereo unspecified)", "cytotoxicity at 70.5 h", 3.73],
  ["Fc1cccc2c1CCC2NCc1cnc(N2CCOCC2)nc1 (stereo unspecified)", "cytotoxicity at 70.5 h", -1.25],
  ["CC[C@@H](C)[C@H](NC(=O)CCn1cc(C(C)=O)c2ccccc21)C(=O)O", "cytotoxicity at 70.5 h", -6.89]
]}

---

assay: Human HepG2 cell viability assay in 384 well format; format: toxicity, cell-based; design: dose 125 nL, time 70.5 hour; concentration not given beside the values; conditions: HepG2 cells, read-out: Inhibition

{"columns": ["compound", "cytotoxicity at 70.5 h [%]"],
 "data": [
  ["Cn1nc2c(cc1=O)CN(Cc1nc(-c3ccoc3)no1)CC2", -2.1],
  ["O=C(NCCC(=O)N1CCCc2ccccc21)c1c(O)cc(F)cc1F", -9.76],
  ["O=C(Nc1cnc2n1CCCC2)C1CCNCC1", 26.5],
  ["COCc1ncn2c1CN(S(=O)(=O)c1ccc(C)cc1)CC2", -0.994],
  ["CC(=O)c1cccc(NC(=O)C2CN(S(=O)(=O)C3CC3)C2)c1", -2.67],
  ["CCc1nnc2n1CCN(C(=O)c1cnc(-c3cccs3)s1)C2", -7.22],
  ["NS(=O)(=O)c1ccc(NC(=O)CSc2ccc3c(c2)CCC3)cc1", -2.39],
  ["COc1cccc(N2CCN(Cc3ccc4[nH]ccc4c3)CC2=O)c1", -12.1],
  ["CSCC(=O)N1CCC2(CC1)c1ccccc1CC2O (centres undefined)", 16.5],
  ["c1coc(CN2CCc3ncnc(C4CCOC4)c3CC2)c1 (centres undefined)", -9.16],
  ["Cn1ccnc1CN1CCC2(CC1)CN(c1cncnc1)C(=O)CO2", -3.27],
  ["CC(NC(=O)CSCC(N)=O)c1ccc(Oc2ccccc2)cc1 (centres undefined)", -8.85],
  ["CCC(=O)NC(CC)c1ccccc1C (centres undefined)", -5.25],
  ["Cc1cccc(C(=O)N2C[C@@H]3CCN(C(C)C)C[C@@H]3C2)c1", 19],
  ["CCOCC(O)CN1CCN(C(=O)c2ccccc2F)CC1 (centres undefined)", -1.86],
  ["Cc1ccc(OCCC(=O)N(C)CC(=O)Nc2cc(C)on2)c(C)c1", -4.37],
  ["c1cc(CO[C@H]2CC[C@H]3[C@H]2OCCN3Cc2nccs2)ccn1", -2.27],
  ["COCCc1noc(CN(C)C(=O)c2cccc(N3CCCC3=O)c2)n1", -17],
  ["CCC(NS(C)(=O)=O)c1ccccc1OC (centres undefined)", -1.94],
  ["CN(CC(O)C(F)(F)F)C(=O)Nc1cccc(Cn2cccn2)c1 (centres undefined)", -6.9],
  ["CC(C)CCn1ccc(NC2CCSC2)n1 (centres undefined)", -8.47],
  ["Cc1nc2c(c(N[C@@H](CO)C(N)=O)n1)Cc1ccccc1OC2", -9.03],
  ["COCCn1cc(NC(=O)NC(C)Cc2c(F)cccc2F)cn1 (centres undefined)", 12.3],
  ["CNC(=O)Cc1coc(-c2ccc(F)cc2)n1", -16.9]
]}
